# System tested: T1, human HGF (R&D material and Peprotech material, values averaged over both) (human, UniProt P14210 32-728)
# T1 construct: As printed they differ in one letter
# T1 sequence (P14210 32-728 limits assumed): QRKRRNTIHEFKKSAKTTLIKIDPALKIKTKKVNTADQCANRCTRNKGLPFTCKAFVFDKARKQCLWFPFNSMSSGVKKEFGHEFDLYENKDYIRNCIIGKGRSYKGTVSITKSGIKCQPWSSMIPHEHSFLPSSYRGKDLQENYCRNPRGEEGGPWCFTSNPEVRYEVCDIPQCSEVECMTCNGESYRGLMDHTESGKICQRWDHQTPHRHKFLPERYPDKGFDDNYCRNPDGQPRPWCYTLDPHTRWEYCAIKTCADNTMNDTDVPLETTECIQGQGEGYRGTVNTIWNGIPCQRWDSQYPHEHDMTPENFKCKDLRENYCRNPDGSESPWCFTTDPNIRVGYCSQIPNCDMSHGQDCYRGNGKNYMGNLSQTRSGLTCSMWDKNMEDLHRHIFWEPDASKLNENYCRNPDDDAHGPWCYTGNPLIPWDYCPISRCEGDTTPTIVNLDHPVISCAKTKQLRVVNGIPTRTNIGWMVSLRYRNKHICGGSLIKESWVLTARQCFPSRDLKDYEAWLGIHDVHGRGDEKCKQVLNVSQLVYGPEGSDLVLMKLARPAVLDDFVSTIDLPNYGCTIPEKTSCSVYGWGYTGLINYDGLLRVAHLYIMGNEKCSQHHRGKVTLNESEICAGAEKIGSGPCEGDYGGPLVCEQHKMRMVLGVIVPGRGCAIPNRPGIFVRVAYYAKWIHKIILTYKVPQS
# Protocol summary: SPR (Biacore T100), purified Nanobody, average of R&D and Peprotech HGF
Value kind: Kd (nM)

1E2 (VHH, anti-HGF Nanobody clone; not shown: c-myc and His6 tags) VHH: EVQLVESGGGLVQPGGSLRLSCAASGRTFSSYAMGWFRQAPGKEREFVAGISWSGSSSYYADSVKGRFTISRDNAKNTVYLQMNSLKPEDTAVYYCAADPVGRADLYEYDYWGQGTQVTVSS :: 1.36

a. 7G6 (VHH, anti-HGF Nanobody clone; not shown: c-myc and His6 tags) VHH: EVQLVESGGGLVQAGGSLRLSCAVSGRTFSPYTMGWFRRAPGKEREFVAARTWSGGVAWYADSVKGRFTISSDNAENMVYLQMNSLKPEDTAVYYCAAKSPGRTYSPREERAYARWGQGTQVTVSS
b. 6E10 (VHH, anti-HGF Nanobody clone; not shown: c-myc and His6 tags) VHH: EVQLVESGGGLVQAGGSLRLSCAASGRTDSSYAMGWFRQAPGKEHEFVAAISWSGGSTYYADSVKGRFTISRDNAKNTLYLQMNSLKPEDTAVYYCGASYRWGITHEYEYWGQGTQVTVSS
IN: I would appreciate it if you could say which entry, a or b , has the lower Kd value. Response format: the label of the selected entry.
OUT: a
(a: 0.67 nM, b: 1.14 nM)
